Reported IC50 values for the following molecules.
- experimentalSystem: HLA-B08.01 (Homo sapiens, UniProt P01889, A93T/A95T/D138N/E176V/E187T/K202T/Q94N/R180D/S35A/V36M/Y33D/Y91F)
- testProtocol: Class I MHC peptide binding affinity (displacement of radiolabeled reference peptide)
Where a SMILES comes first, the peptide text is derived from it.
Use µM as the unit, but write only the number.

// solved cases for IC50 follow
CC(C)C[C@H](N)C(=O)N[C@@H](C)C(=O)N[C@H](C(=O)N[C@@H](CCC(=O)O)C(=O)N[C@@H](CCCCN)C(=O)N[C@@H](CO)C(=O)N[C@@H](CCCNC(=N)N)C(=O)N[C@@H](Cc1c[nH]c2ccccc12)C(=O)N[C@@H](CO)C(=O)O)[C@@H](C)O (H-LATEKSRWS-OH; N-terminus and C-terminus assumed) : 37
CC(C)C[C@H](NC(=O)[C@@H]1CCCN1C(=O)[C@@H]1CCCN1C(=O)[C@@H](NC(=O)[C@H](CO)NC(=O)[C@H](CC(C)C)NC(=O)[C@H](CC(C)C)NC(=O)[C@H](CCC(=O)O)NC(=O)[C@@H](N)Cc1ccccc1)[C@@H](C)O)C(=O)O (H-FELLSTPPL-OH; N-terminus and C-terminus assumed) : 3.18
CC[C@H](C)[C@H](NC(=O)[C@H](Cc1ccc(O)cc1)NC(=O)[C@H](CCCCN)NC(=O)CNC(=O)[C@H](CCCNC(=N)N)NC(=O)[C@H](CCCCN)NC(=O)[C@H](Cc1c[nH]cn1)NC(=O)[C@H](CC(C)C)NC(=O)[C@@H](N)Cc1c[nH]c2ccccc12)C(=O)O (H-WLHKRGKYI-OH; N-terminus and C-terminus assumed) : 0.417

Could you tell me which IC50 is on file for CC(C)C[C@H](NC(=O)[C@H](CC(=O)O)NC(=O)[C@H](CO)NC(=O)[C@H](CCC(N)=O)NC(=O)[C@H](CCC(N)=O)NC(=O)[C@H](CCC(N)=O)NC(=O)[C@H](CCC(N)=O)NC(=O)[C@H](CCC(N)=O)NC(=O)[C@@H](N)Cc1ccc(O)cc1)C(=O)O (H-YQQQQQSDL-OH; N-terminus and C-terminus assumed) ?
18.9

Input CC[C@H](C)[C@H](NC(=O)[C@H](CC(N)=O)NC(=O)[C@H](CCSC)NC(=O)[C@H](Cc1c[nH]cn1)NC(=O)[C@H](CC(N)=O)NC(=O)CNC(=O)[C@H](CC(C)C)NC(=O)[C@@H](N)Cc1ccc(O)cc1)C(=O)N[C@@H](C)C(=O)O (H-YLGNHMNIA-OH; N-terminus and C-terminus assumed)
0.872

Consider next the molecule CC(C)C[C@H](NC(=O)[C@H](CO)NC(=O)[C@H](CCCCN)NC(=O)[C@H](CC(C)C)NC(=O)[C@@H](NC(=O)[C@H](CO)NC(=O)[C@@H]1CCCN1C(=O)[C@H](CC(C)C)NC(=O)[C@@H](N)Cc1ccccc1)[C@@H](C)O)C(=O)O in the same way.
1.97

Input CC(C)C[C@H](N)C(=O)N[C@@H](C)C(=O)N[C@H](C(=O)N[C@@H](CCC(=O)O)C(=O)N[C@@H](CCCCN)C(=O)N[C@@H](CO)C(=O)N[C@@H](CCCNC(=N)N)C(=O)N[C@@H](Cc1c[nH]c2ccccc12)C(=O)N[C@@H](CO)C(=O)NCC(=O)O)[C@@H](C)O (H-LATEKSRWSG-OH; N-terminus and C-terminus assumed)
46.6

Origin of the recorded values: patent US20220282217A1
